IC50 values recorded for UniProtKB Q72547
Only the number, expressed in nM, is required.

Prompt: For the record COc1ccc(OCc2ccnc3c2NC(=O)c2cccnc2N3C2CC2)cc1 , what value of IC50 is listed for UniProtKB Q72547?
Completion: 1040

Prompt: For the record O=C1Nc2c(CNc3ccccc3)ccnc2N(C2CC2)c2ncccc21 , what value of IC50 is listed for UniProtKB Q72547?
Completion: 60

Prompt: For the record CCN1c2ncccc2C(=O)Nc2c(C=O)cc(OC)nc21 , what value of IC50 is listed for UniProtKB Q72547?
Completion: 240

Prompt: For the record Cc1ccccc1OCc1ccnc2c1NC(=O)c1cccnc1N2C1CC1 , what value of IC50 is listed for UniProtKB Q72547?
Completion: 290

Prompt: For the record O=C1Nc2c(COc3ccccc3Cl)ccnc2N(C2CC2)c2ncccc21 , what value of IC50 is listed for UniProtKB Q72547?
Completion: 3050

Prompt: For the record CCN1c2ncccc2C(=O)Nc2c(COc3ccccc3)cc(OC)nc21 , what value of IC50 is listed for UniProtKB Q72547?
Completion: 4000

Prompt: For the record Cc1ccc(Cc2ccnc3c2NC(=O)c2cccnc2N3C2CC2)c(O)c1 , what value of IC50 is listed for UniProtKB Q72547?
Completion: 200

Prompt: For the record CCN1c2ncccc2C(=O)Nc2c(C=O)cc(-c3cccc(OC)c3)nc21 , what value of IC50 is listed for UniProtKB Q72547?
Completion: 330

Prompt: For the record O=C1Nc2c(Cn3cccn3)ccnc2N(C2CC2)c2ncccc21 , what value of IC50 is listed for UniProtKB Q72547?
Completion: 2200

Prompt: For the record O=C1Nc2c(Cc3ccccc3)ccnc2N(C2CC2)c2ncccc21 , what value of IC50 is listed for UniProtKB Q72547?
Completion: 140

Prompt: For the record O=C1Nc2c(CC3=CCNC3)ccnc2N(C2CC2)c2ncccc21 , what value of IC50 is listed for UniProtKB Q72547?
Completion: 640

Prompt: For the record CCN1c2ncccc2C(=O)Nc2c(C3OCCCO3)cc(OC)nc21 , what value of IC50 is listed for UniProtKB Q72547?
Completion: 800

Prompt: For the record Nc1ccc(OCc2ccnc3c2NC(=O)c2cccnc2N3C2CC2)cc1 , what value of IC50 is listed for UniProtKB Q72547?
Completion: 100

Prompt: For the record CCN1c2ncccc2C(=O)Nc2c(Cc3ccccc3)cc(=O)[nH]c21 , what value of IC50 is listed for UniProtKB Q72547?
Completion: 340

Prompt: For the record O=C1Nc2c(CN3CCOCC3)ccnc2N(C2CC2)c2ncccc21 , what value of IC50 is listed for UniProtKB Q72547?
Completion: 1030

###

- TARGET: UniProt Q72547
- PROTOCOL_SUMMARY: Percent inhibitory activity against wild type (WT) HIV type I reverse transcriptase at a concentration of 1 uM
RECORDED_METRIC: inhibition (%)
Only the number, expressed in %, is required.

STRUCTURE: O=C1Nc2c(COCCc3ccccc3)ccnc2N(C2CC2)c2ncccc21
MEASURE_UNIT: %
inhibition: 55
--
STRUCTURE: O=C1Nc2c(CN3CCOCC3)ccnc2N(C2CC2)c2ncccc21
MEASURE_UNIT: %
inhibition: 50
--
STRUCTURE: C=Cc1ccnc2c1NC(=O)c1cccnc1N2C1CC1
MEASURE_UNIT: %
inhibition: 83
--
STRUCTURE: CCN1c2ncccc2C(=O)Nc2c(CO)cc(-c3cccc(OC)c3)nc21
MEASURE_UNIT: %
inhibition: 16
--
STRUCTURE: CCOC(=O)CCc1ccnc2c1NC(=O)c1cccnc1N2C1CC1
MEASURE_UNIT: %
inhibition: 13

Prompt: I would be grateful if you could share the reported inhibition for CCN1c2ncccc2C(=O)Nc2c(COCc3ccccc3)cc(O)nc21 .
Completion: 83

Prompt: I would be grateful if you could share the reported inhibition for Cc1ccc(Cc2ccnc3c2NC(=O)c2cccnc2N3C2CC2)c(O)c1 .
Completion: 76

Prompt: I would be grateful if you could share the reported inhibition for O=C(O)CCc1ccnc2c1NC(=O)c1cccnc1N2C1CC1 .
Completion: 2

Prompt: I would be grateful if you could share the reported inhibition for O=C1Nc2c(/C=C/c3ccccc3)ccnc2N(C2CC2)c2ncccc21 .
Completion: 23

Prompt: I would be grateful if you could share the reported inhibition for Cc1ccccc1OCc1ccnc2c1NC(=O)c1cccnc1N2C1CC1 .
Completion: 65
